The values you see were collected from the supplement of paper PMC8728848.

- target.of.assay: Gal(b1-4)GlcNAc(b1-2)[Gal(b1-4)GlcNAc(b1-6)]Man(a1-6)[GlcNAc(b1-4)][Gal(b1-4)GlcNAc(b1-2)[Gal(b1-4)GlcNAc(b1-4)]Man(a1-3)]Man(b1-4)GlcNAc(b1-4)[Fuc(a1-6)]GlcNAc
- experiment.description: glycan array binding signal (z-score within array); higher = stronger binding
- cond: glycan notation: IUPAC condensed, linker removed
This excerpt belongs to a sample that is enriched for the strongest signals.
# glycan array binding signal (z-score) per record follows
measured.endpoint: glycan array binding signal (z-score)

1) SSP1 (Sclerotinia sclerotiorum), XP_001584968 (protein) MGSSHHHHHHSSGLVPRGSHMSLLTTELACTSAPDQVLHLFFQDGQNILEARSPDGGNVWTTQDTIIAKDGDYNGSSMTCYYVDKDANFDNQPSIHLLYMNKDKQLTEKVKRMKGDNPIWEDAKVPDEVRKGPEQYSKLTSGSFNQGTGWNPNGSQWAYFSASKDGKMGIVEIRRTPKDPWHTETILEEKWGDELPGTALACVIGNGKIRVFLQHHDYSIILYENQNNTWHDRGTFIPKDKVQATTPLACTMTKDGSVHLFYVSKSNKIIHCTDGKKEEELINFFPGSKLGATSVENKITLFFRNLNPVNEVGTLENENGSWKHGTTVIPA = 0.197
2) BIp1-His (Cryptococcus neoformans) (protein) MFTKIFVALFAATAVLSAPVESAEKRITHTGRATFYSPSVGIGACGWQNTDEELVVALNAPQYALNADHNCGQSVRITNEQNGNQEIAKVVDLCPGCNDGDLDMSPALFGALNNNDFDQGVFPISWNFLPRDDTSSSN = -0.02
3) GST Gap3 (Streptococcus parasanguinis) (protein) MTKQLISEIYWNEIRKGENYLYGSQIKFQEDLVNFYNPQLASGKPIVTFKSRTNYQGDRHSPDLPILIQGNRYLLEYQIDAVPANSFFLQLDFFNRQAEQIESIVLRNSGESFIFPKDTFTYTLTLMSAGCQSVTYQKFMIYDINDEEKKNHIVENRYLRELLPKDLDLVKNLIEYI = 0.228
4) SSR2 (Sclerotium rolfsii) (protein) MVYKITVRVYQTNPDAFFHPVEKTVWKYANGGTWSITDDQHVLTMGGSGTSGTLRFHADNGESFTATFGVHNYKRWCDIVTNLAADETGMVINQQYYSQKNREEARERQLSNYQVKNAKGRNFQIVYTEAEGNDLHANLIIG = -0.266
5) AFL5 (Aspergillus fumigatus), Q4WB00 (protein) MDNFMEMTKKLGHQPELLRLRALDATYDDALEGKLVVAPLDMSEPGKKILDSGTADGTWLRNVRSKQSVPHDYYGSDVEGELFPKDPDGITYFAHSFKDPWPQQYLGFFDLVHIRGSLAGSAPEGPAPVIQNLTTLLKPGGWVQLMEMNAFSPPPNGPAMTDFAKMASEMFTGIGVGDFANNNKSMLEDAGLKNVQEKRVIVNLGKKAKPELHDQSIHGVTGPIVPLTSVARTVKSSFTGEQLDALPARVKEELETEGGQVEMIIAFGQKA = 3.2
6) AidA (Burkholderia cenocepacia) (protein) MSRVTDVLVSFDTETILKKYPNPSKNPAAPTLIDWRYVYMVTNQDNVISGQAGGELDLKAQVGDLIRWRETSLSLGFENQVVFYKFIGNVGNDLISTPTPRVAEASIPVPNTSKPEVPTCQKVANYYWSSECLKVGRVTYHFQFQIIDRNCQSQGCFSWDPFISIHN = -0.272
